pKd values, listed per item
Target: T1, cynomolgus TF ECD-His6 (cynomolgus monkey (Macaca fascicularis))
T1 construct: made in Expi293 cells; also called TF-His; cTF
T1 chain: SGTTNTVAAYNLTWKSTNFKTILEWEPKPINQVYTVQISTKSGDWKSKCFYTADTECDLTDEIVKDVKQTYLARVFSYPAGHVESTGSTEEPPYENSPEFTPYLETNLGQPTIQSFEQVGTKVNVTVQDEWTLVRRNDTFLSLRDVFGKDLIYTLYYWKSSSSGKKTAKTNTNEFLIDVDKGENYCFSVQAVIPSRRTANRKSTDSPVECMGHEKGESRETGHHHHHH
Assay: SPR (Biacore), antibody on chip, TF-His titrated
// pKd here means minus log10 of the molar concentration (mol/L)

binder | observation.type | experimental.result
25G (antibody, human IgG1, kappa, V domains shown, human IgG1) VH: QVQLVQSGAEVKKPGASVKVSCKASGYTFRSYGISWVRQAPGQGLEWMGWVAPYNGNTNYAQKLQGRVTMTTDTSTSTAYMELRSLRSDDTAVYYCARDAGTYSPYGYGMDVWGQGTTVTVSS VL: DIQMTQSPSTLSASVGDRVTITCRASQSISSWLAWYQQKPGKAPKLLIYKASSLESGVPSRFSGSGSGTEFTLTISSLQPDDFATYYCQQFQSLPPFTFGGGTKVEIKR | pKd | 7.74
25G1 (antibody, human IgG1, kappa, V domains shown, human IgG1) VH: QVQLVQSGAEVKKPGASVKVSCKASGYTFRSYGISWVRQAPGQGLEWMGWVAPYSGNTNYAQKLQGRVTMTTDTSTSTAYMELRSLRSDDTAVYYCARDAGTYSPYGYGMDVWGQGTTVTVSS VL: DIQMTQSPSTLSASVGDRVTITCRASHSIDSWLAWYQQKPGKAPKLLIYKASYLESGVPSRFSGSGSGTEFTLTISSLQPDDFATYYCQLFQSLPPFTFGGGTKVEIKR | pKd | 9.11
25A (antibody, human IgG1, V domains shown, human IgG1) VH: QVQLVQSGAEVKKPGASVKVSCKASGYTFDVYGISWVRQAPGQGLEWMGWIAPYNGNTNYAQKLQGRVTMTTDTSTSTAYMELRSLRSDDTAVYYCARDAGTYSPFGYGMDVWGQGTTVTVSS VL: DIQMTQSPSTLSASVGDRVTITCRASQSISSWLAWYQQKPGKAPKLLIYKASSLESGVPSRFSGSGSGTEFTLTISSLQPDDFATYYCQQFQSLPPFTFGGGTKVEIK | pKd | 8.27
43D (antibody, human IgG1, V domains shown, human IgG1) VH: QVQLQQWGAGLLKPSETLSLTCAVYGGSLSGYYWSWIRQPPGKGLEWIGEIGASGSTRYNPSLKSRVTISVDTSKNQFSLKLSSVTAADTAVYYCARDTPYYYEGGYYYYMDVWGKGTTVTVSS VL: EIVLTQSPGTLSLSPGERATLSCRASQSVSSSYLAWYQQKPGQAPRLLIYGASSRATGIPDRFSGSGSGTDFTLTISRLEPEDFAVYYCQQVGVVPYTFGGGTKVEIK | pKd | 8.25
25A5 (antibody, human IgG1, kappa, V domains shown, human IgG1) VH: QVQLVQSGAEVKKPGASVKVSCKASGYTFDVYGISWVRQAPGQGLEWMGWIAPYSGNTNYAQKLQGRVTMTTDTSTSTAYMELRSLRSDDTAVYYCARDAGTYSPFGYGMDVWGQGTTVTVSS VL: DIQMTQSPSTLSASVGDRVTITCRASESISNWLAWYQQKPGKAPKLLIYKAYSLEYGVPSRFSGSGSGTEFTLTISSLQPDDFATYYCQQFQKLPPFTFGGGTKVEIKR | pKd | 10.40
25A3 (antibody, human IgG1, kappa, V domains shown, human IgG1) VH: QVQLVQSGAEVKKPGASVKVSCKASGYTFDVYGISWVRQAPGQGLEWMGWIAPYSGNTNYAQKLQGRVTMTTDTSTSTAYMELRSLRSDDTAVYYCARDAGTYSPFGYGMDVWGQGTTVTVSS VL: DIQMTQSPSTLSASVGDRVTITCQASQSINNWLAWYQQKPGKAPKLLIYKAYNLESGVPSRFSGSGSGTEFTLTISSLQPDDFATYYCQLFQSLPPFTFGGGTKVEIKR | pKd | 9.68
54E (antibody, human IgG1, V domains shown, human IgG1) VH: QVQLVQSGAEVKKPGASVKVSCKASGYTFANYYMHWVRQAPGQGLEWMGIINPSGGITVYAQKFQGRVTMTRDTSTSTVYMELSSLRSEDTAVYYCARGGSKVAALAFDIWGQGTMVTVSS VL: DIQMTQSPSSLSASVGDRVTITCQASQDISNSLNWYQQKPGKAPKLLIYDASNLETGVPSRFSGSRSGTDFTFTISSLQPEDIATYYCQQYNFHPLTFGGGTKVEIK | pKd | 8.74
25G9 (antibody, human IgG1, kappa, V domains shown, human IgG1) VH: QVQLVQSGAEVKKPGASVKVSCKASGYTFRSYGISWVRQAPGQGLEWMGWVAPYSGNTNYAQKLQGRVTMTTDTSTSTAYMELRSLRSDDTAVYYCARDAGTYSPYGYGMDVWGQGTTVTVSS VL: DIQMTQSPSTLSASVGDRVTITCQASQSIDSWLAWYQQKPGKAPKLLIYSASYLESGVPSRFSGSGSGTEFTLTISSLQPDDFATYYCQRFQSLPPFTFGGGTKVEIKR | pKd | 7.79
43B7 (antibody, human IgG1, V domains shown, human IgG1) VH: QVQLQESGPGLVKPSQTLSLTCTVSGGSISSGQYWSWIRQHPGKGLEWIGEIYYSGSTRYNPSLKSRVTISVDTSKNQFSLKLSSVTAADTAVYYCARDAPYYYGGGYYYYMDVWGKGTTVTVSS VL: EIVLTQSPGTLSLSPGERATLSCRASESVDSSYLAWYQQKPGQAPRLLIYGADSRATGIPDRFSGSGSGTDFTLTISRLEPEDFAVYYCQQDGVVPYTFGGGTKVEIK | pKd | 9.62
39A (antibody, human IgG1, V domains shown, human IgG1) VH: QVQLVQSGAEVKKPGSSVKVSCKASGGTFSSNAIGWVRQAPGQGLEWMGSIIPIIGFANYAQKFQGRVTITADESTSTAYMELSSLRSEDTAVYYCARDSGYYYGASSFGMDVWGQGTTVTVSS VL: EIVMTQSPATLSVSPGERATLSCRASQSVSSNLAWYQQKPGQAPRLLIYGASTRATGIPARFSGSGSGTEFTLTISSLQSEDFAVYYCEQYNNLPLTFGGGTKVEIK | pKd | 10.10

Now turn to the next binder.
Q) Entry 43B (antibody, human IgG1, V domains shown, human IgG1) VH: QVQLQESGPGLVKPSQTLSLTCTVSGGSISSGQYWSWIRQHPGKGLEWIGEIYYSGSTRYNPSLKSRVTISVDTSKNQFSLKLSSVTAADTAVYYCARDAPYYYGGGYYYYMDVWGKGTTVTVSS VL: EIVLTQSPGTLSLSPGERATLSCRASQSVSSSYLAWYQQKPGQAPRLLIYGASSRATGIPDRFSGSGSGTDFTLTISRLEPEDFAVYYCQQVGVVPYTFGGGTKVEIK : reported pKd = ?
A) 8.25
